Entries and their measured IC50 follow.
# measurement target: α-amylase (AA) type VI-B from porcine pancreas (Sus scrofa, UniProt P00690)
# Sequence (P00690 16-511): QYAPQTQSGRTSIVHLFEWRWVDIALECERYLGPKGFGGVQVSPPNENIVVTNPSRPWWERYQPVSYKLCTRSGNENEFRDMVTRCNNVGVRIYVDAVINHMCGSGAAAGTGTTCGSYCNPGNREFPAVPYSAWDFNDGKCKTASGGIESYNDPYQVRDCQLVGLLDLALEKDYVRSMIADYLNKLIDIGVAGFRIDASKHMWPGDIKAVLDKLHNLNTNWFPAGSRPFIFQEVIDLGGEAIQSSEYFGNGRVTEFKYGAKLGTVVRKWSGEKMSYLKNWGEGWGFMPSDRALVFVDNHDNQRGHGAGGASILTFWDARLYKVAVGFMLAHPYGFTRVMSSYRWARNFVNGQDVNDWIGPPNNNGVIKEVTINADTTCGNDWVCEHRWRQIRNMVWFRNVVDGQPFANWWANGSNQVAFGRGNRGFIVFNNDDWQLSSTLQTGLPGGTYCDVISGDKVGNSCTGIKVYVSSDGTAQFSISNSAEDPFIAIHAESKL
# assay notes: AA inhibition assay
# measurement parameters: α-Amylase IC50 (µM), evaluated range 6.25 µM–1000 µM; mean of n = 3 ± SD

compound	IC50
CC(C)=CCc1c(O)cc2oc3cc(O)c(O)c(CC=C(C)C)c3c(=O)c2c1O [Compound 5, γ-mangostin]	333 µM
CC(C)=CCc1c(O)c(CC=C(C)C)c2oc3c(O)ccc(O)c3c(=O)c2c1O [Compound 3, gartanin]	> 1000 µM
COc1c(O)cc2oc3cc(O)c(CCC(C)C)c(O)c3c(=O)c2c1CCC(C)C [Compound 9, tetrahydro-α-mangostin]	90.1 µM

Lab note: next compound to report on.
Entry COc1c(O)cc2oc3cc4c(c(O)c3c(=O)c2c1CC=C(C)C)C=CC(C)(C)O4 [Compound 1, 9-hydroxycalabaxanthone] : reported IC50 = ?
> 1000 µM
